Test system: NK-YS (IL-2 2.5 ng/mL)
Assay: percent inhibition of viability; higher = more inhibition
Details: 72 h; 1 nM
Each item that follows carries a reported percent inhibition of viability.
A number alone suffices; assume %.

# count of solved cases: 4
Param item = N#Cc1ccc(COC[C@H]2O[C@@H](n3c(NCc4ccc(Cl)c(Cl)c4)nc4c(N)ncnc43)[C@H](O)[C@@H]2O)cc1 (max concentration tested 10000 nM) ; retrieve measured percent inhibition of viability.
-1.65

Param item = CCn1cc(-c2ccnc3[nH]c(-c4cccc(CN(C)C)c4)cc23)c(-c2ccc(NC(=O)N(C)C)cc2)n1 (max concentration tested 1000 nM) ; retrieve measured percent inhibition of viability.
-3.4

Param item = CC(C)C[C@H](NC(=O)[C@H](Cc1ccccc1)NC(=O)c1cnccn1)B(O)O [Bortezomib] (max concentration tested 1000 nM) ; retrieve measured percent inhibition of viability.
-1.32

Param item = CCc1cc2c(cc1N1CCC(N3CCOCC3)CC1)C(C)(C)c1[nH]c3cc(C#N)ccc3c1C2=O [Alectinib] (max concentration tested 1000 nM) ; retrieve measured percent inhibition of viability.
-3.61

Turning now to a further record.
Param item = CNC(=O)c1cc(Oc2ccc(NC(=O)Nc3ccc(Cl)c(C(F)(F)F)c3)c(F)c2)ccn1 [Regorafenib] (max concentration tested 10000 nM) ; retrieve measured percent inhibition of viability.
-1

###

Each item that follows carries a reported percent inhibition of viability.
Test system: normal primary NK cells, pool 1 (3 donors), resting (IL-2 0 ng/mL)
Assay: percent inhibition of viability; higher = more inhibition
Settings: 72 h; 10000 nM
A number alone suffices; assume %.

# count of solved cases: 5
Param item = C=C1C[C@@H]2[C@H](CC[C@]3(C)C(=O)CC[C@@H]23)[C@@]2(C)C=CC(=O)C=C12 [Exemestane] (max concentration tested 10000 nM) ; retrieve measured percent inhibition of viability.
75.8

Param item = COc1cc2c(NC3CCN(C(C)C)CC3)nc(N3CCC(F)(F)CC3)nc2cc1OCCCN1CCCC1 [UNC0642] (max concentration tested 10000 nM) ; retrieve measured percent inhibition of viability.
98.6

Param item = CNC(=O)c1cc(Oc2ccc(NC(=O)Nc3ccc(Cl)c(C(F)(F)F)c3)c(F)c2)ccn1 [Regorafenib] (max concentration tested 10000 nM) ; retrieve measured percent inhibition of viability.
79.3

Param item = Cc1sc2c(c1C)C(c1ccc(Cl)cc1)=N[C@@H](CC(=O)OC(C)(C)C)c1nnc(C)n1-2 [(+)JQ1] (max concentration tested 10000 nM) ; retrieve measured percent inhibition of viability.
74.8

Param item = CN1CCC(CNc2ccc3ncc(-c4cccc(OC(F)(F)F)c4)n3n2)CC1 [SGI-1776] (max concentration tested 10000 nM) ; retrieve measured percent inhibition of viability.
99.8

Turning now to a further record.
Param item = FC(F)c1nc2ccccc2n1-c1nc(N2CCOCC2)nc(N2CCOCC2)n1 [ZSTK474] (max concentration tested 10000 nM) ; retrieve measured percent inhibition of viability.
41.5

###

System: IMC-1 (IL-2 20 ng/mL)
Experiment: percent inhibition of viability; higher = more inhibition
Details: 72 h; 100 nM
Each item that follows carries a reported percent inhibition of viability.
A number alone suffices; assume %.

# count of solved cases: 4
Param item = COc1cc2c(NC3CCN(C(C)C)CC3)nc(N3CCC(F)(F)CC3)nc2cc1OCCCN1CCCC1 [UNC0642] (max concentration tested 10000 nM) ; retrieve measured percent inhibition of viability.
-6.38

Param item = COc1c(C)cnc(Cn2cnc3c(Cl)nc(N)nc32)c1C [BIIB021] (max concentration tested 10000 nM) ; retrieve measured percent inhibition of viability.
26.6

Param item = CCCS(=O)(=O)Nc1ccc(F)c(C(=O)c2c[nH]c3ncc(-c4ccc(Cl)cc4)cc23)c1F [Vemurafenib] (max concentration tested 10000 nM) ; retrieve measured percent inhibition of viability.
-1.05

Param item = C=CCNC1=C2C[C@@H](C)C[C@H](OC)[C@H](O)[C@@H](C)/C=C(\C)[C@H](OC(N)=O)[C@@H](OC)/C=C\C=C(/C)C(=O)NC(=CC1=O)C2=O [Tanespimycin] (max concentration tested 10000 nM) ; retrieve measured percent inhibition of viability.
3.61

Turning now to a further record.
Param item = CN(C)C1CCN(C(=O)c2ccc(NC(=O)Nc3ccc(-c4nc(N5CCOCC5)nc(N5CCOCC5)n4)cc3)cc2)CC1 [Gedatolisib] (max concentration tested 1000 nM) ; retrieve measured percent inhibition of viability.
-2.3

###

System: normal NK cells expanded with K562-aAPC
Experiment: drug sensitivity score (DSS) (DSS units); higher = more sensitive; extreme values may be limits of the assay
Settings: 72 h; IL-2 2.5 ng/mL
# label = true (1) if drug sensitivity score >= 3 else false (0)

Please review the entries below; each comes with its answer.
Identify whether the reported drug sensitivity score of the following compound is 3 or greater: CC[C@@]1(O)C(=O)OCc2c1cc1n(c2=O)Cc2cc3ccccc3nc2-1 [Camptothecin] (max concentration tested 5000 nM)
true (1)

Identify whether the reported drug sensitivity score of the following compound is 3 or greater: CCn1cc(-c2ccnc3[nH]c(-c4cccc(CN(C)C)c4)cc23)c(-c2ccc(NC(=O)N(C)C)cc2)n1 (max concentration tested 1000 nM)
true (1)

Identify whether the reported drug sensitivity score of the following compound is 3 or greater: CCCCc1nc2cc(/C=C/C(=O)NO)ccc2n1CCN(CC)CC [Pracinostat] (max concentration tested 10000 nM)
true (1)

Identify whether the reported drug sensitivity score of the following compound is 3 or greater: C[C@@H](Nc1cc(F)cc(F)c1)c1cc(C(=O)N(C)C)cc2c(=O)cc(N3CCOCC3)oc12 [AZD-8186] (max concentration tested 1000 nM)
false (0)

Would you kindly look at the next entry?
Identify whether the reported drug sensitivity score of the following compound is 3 or greater: Cc1ccc(NC(=O)c2ccc(CN3CCN(C)CC3)cc2)cc1Nc1nc(-c2cccnc2)cs1 [Masitinib] (max concentration tested 10000 nM)
true (1)

###

Test system: NKL (IL-2 2.5 ng/mL)
Test: percent inhibition of viability; higher = more inhibition
Settings: 72 h; 100 nM
Returns: string. Value is 1 if measured percent inhibition of viability is below 10%, and 0 if it is greater than or equal to it.

Does CC(C)C[C@H](NC(=O)[C@H](Cc1ccccc1)NC(=O)c1cnccn1)B(O)O [Bortezomib] (max concentration tested 1000 nM) have percent inhibition of viability strictly under 10%?
0

Does Cc1ccc(F)c(NC(=O)Nc2ccc(-c3cccc4[nH]nc(N)c34)cc2)c1 [Linifanib] (max concentration tested 1000 nM) have percent inhibition of viability strictly under 10%?
0

---
Does CCn1c(=O)c(-c2cc[nH]n2)cc2c(C)nc(N)nc21 [Voxtalisib] (max concentration tested 10000 nM) have percent inhibition of viability strictly under 10%?
1

Does C[C@]1(O)C[C@@H](c2nc(-c3ccc4ccc(-c5ccccc5)nc4c3)c3c(N)nccn32)C1 [Linsitinib] (max concentration tested 10000 nM) have percent inhibition of viability strictly under 10%?
1

Does Nc1nc(Cl)nc2c1ncn2[C@H]1C[C@H](O)[C@@H](CO)O1 [Cladribine] (max concentration tested 1000 nM) have percent inhibition of viability strictly under 10%?
0

Does CC[C@@H]1C(=O)N(C)c2cnc(Nc3ccc(C(=O)NC4CCN(C)CC4)cc3OC)nc2N1C1CCCC1 [BI 2536] (max concentration tested 1000 nM) have percent inhibition of viability strictly under 10%?
0

###

Each item that follows carries a reported percent inhibition of viability.
System: NK-YS (IL-2 2.5 ng/mL)
Experiment: percent inhibition of viability; higher = more inhibition
Details: 72 h; 1 nM
A number alone suffices; assume %.

# count of solved cases: 2
Param item = CC[C@@H]1C(=O)N(C)c2cnc(Nc3ccc(C(=O)NC4CCN(C)CC4)cc3OC)nc2N1C1CCCC1 [BI 2536] (max concentration tested 1000 nM) ; retrieve measured percent inhibition of viability.
3.08

Param item = O=C1CN2Cc3c(ccc(Cl)c3Cl)N=C2N1 [Anagrelide] (max concentration tested 10000 nM) ; retrieve measured percent inhibition of viability.
-1.23

Turning now to a further record.
Param item = N#CC[C@H](C1CCCC1)n1cc(-c2ncnc3[nH]ccc23)cn1 [Ruxolitinib] (max concentration tested 10000 nM) ; retrieve measured percent inhibition of viability.
3.29

###

Each item that follows carries a reported percent inhibition of viability.
System: IMC-1 (IL-2 20 ng/mL)
Assay: percent inhibition of viability; higher = more inhibition
Conditions: 72 h; 10000 nM
A number alone suffices; assume %.

# count of solved cases: 5
Param item = CN(C)CCOc1ccc(/C(=C(/CCCl)c2ccccc2)c2ccccc2)cc1 [Toremifene] (max concentration tested 10000 nM) ; retrieve measured percent inhibition of viability.
10.6

Param item = O=C(c1ccc(OCCN2CCCCC2)cc1)c1c(-c2ccc(O)cc2)sc2cc(O)ccc12 [Raloxifene] (max concentration tested 10000 nM) ; retrieve measured percent inhibition of viability.
10.4

Param item = N#Cc1ccc(COC[C@H]2O[C@@H](n3c(NCc4ccc(Cl)c(Cl)c4)nc4c(N)ncnc43)[C@H](O)[C@@H]2O)cc1 (max concentration tested 10000 nM) ; retrieve measured percent inhibition of viability.
97.2

Param item = C[C@]1(O)C[C@@H](c2nc(-c3ccc4ccc(-c5ccccc5)nc4c3)c3c(N)nccn32)C1 [Linsitinib] (max concentration tested 10000 nM) ; retrieve measured percent inhibition of viability.
-3.58

Param item = Cc1ccc(NC(=O)c2ccc(CN3CCN(C)CC3)cc2)cc1Nc1nc(-c2cccnc2)cs1 [Masitinib] (max concentration tested 10000 nM) ; retrieve measured percent inhibition of viability.
100

---
Param item = CN1CCC(CNc2ccc3ncc(-c4cccc(OC(F)(F)F)c4)n3n2)CC1 [SGI-1776] (max concentration tested 10000 nM) ; retrieve measured percent inhibition of viability.
101

Param item = CC[C@H](Nc1ncnc2[nH]cnc12)c1nc2cccc(F)c2c(=O)n1-c1ccccc1 [Idelalisib] (max concentration tested 10000 nM) ; retrieve measured percent inhibition of viability.
11.1

Param item = C[C@]12CC[C@@H]3c4ccc(OC(=O)N(CCCl)CCCl)cc4CC[C@H]3[C@@H]1CC[C@@H]2O [Estramustine] (max concentration tested 10000 nM) ; retrieve measured percent inhibition of viability.
-6.87

Param item = CC[C@H](C)C(=O)O[C@H]1C[C@H](O)C=C2C=C[C@H](C)[C@H](CC[C@@H](O)C[C@@H](O)CC(=O)O)[C@H]21 [Pravastatin] (max concentration tested 10000 nM) ; retrieve measured percent inhibition of viability.
1.04

Param item = O=C(Nc1cccc(Nc2ncc(Br)c(NCCc3cnc[nH]3)n2)c1)N1CCCC1 [BX-912] (max concentration tested 10000 nM) ; retrieve measured percent inhibition of viability.
100

Param item = NC(=O)N1CCC(CC(=O)N2CCC([C@H]3c4ncc(Br)cc4CCc4cc(Cl)cc(Br)c43)CC2)CC1 [Lonafarnib] (max concentration tested 10000 nM) ; retrieve measured percent inhibition of viability.
36.6

Param item = O=C(O)CCCCC(CCSCc1ccccc1)SCc1ccccc1 (configuration not stated) [CPI-613] (max concentration tested 10000 nM) ; retrieve measured percent inhibition of viability.
9.03
